- study-target: T1, human IL-11Rα (form used in the assay not stated) (human, UniProt Q14626 23-363, limits assumed)
- T1 construct: also called hIL-11R; hIL-11Rα
- T1 sequence: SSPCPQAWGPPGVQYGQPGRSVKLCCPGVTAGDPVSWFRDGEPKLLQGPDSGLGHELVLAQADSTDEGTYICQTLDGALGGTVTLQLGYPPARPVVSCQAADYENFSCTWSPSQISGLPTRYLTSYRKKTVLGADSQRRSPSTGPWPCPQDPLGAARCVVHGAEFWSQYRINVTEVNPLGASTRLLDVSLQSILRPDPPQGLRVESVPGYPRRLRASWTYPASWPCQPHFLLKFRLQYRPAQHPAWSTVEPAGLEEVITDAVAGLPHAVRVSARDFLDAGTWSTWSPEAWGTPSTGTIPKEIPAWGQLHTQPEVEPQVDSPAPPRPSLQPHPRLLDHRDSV
- experiment-summary: Biacore, pH 8.5, 37°C
Collected Kd values appear next to each entry.
Use nM as the unit, but write only the number.

// below: answered binders
hu8E2-TS-303 (antibody, V domains shown) VH: EVQLLESGGGLVQPGGSLRLSCAASGFTFSWYSMTWVRQAPGKGLEWVSSIVPSGGHTQYADSVKGRFTISRDNSKNTLYLQMNSLRAEDTAVYYCAKGPGWGSFDLWGRGTLVTVSS VL: DIQMTQSPSSLSASVGDRVTITCQASQDVDYWVEWYQQKPGKAPKLLIYDASNLQTGVPSRFSGSGSGTDFTFTISSLQPEDIATYYCQQYDNLSPTFGPGTKVDIK = 4.09
hu8E2-TS-305 (antibody, V domains shown) VH: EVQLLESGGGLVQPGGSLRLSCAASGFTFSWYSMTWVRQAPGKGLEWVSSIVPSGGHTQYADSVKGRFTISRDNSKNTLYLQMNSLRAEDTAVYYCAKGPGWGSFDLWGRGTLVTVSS VL: DIQMTQSPSSLSASVGDRVTITCQASQDVGIYVEWYQQKPGKAPKLLIYDASNLQTGVPSRFSGSGSGTDFTFTISSLQPEDIATYYCQQYDNLSPTFGPGTKVDIK = 1.58

Fill in the blank: the reported Kd of hu8E2-TS-17 (antibody, V domains shown) VH: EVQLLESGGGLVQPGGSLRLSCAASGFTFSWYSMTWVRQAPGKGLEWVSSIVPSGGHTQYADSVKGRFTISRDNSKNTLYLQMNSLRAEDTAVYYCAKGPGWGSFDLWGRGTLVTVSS VL: DIQMTQSPSSLSASVGDRVTITCQASQDINNYLNWYQQKPGKAPKLLIYDASNLQTGVPSRFSGSGSGTDFTFTISSLQPEDIATYYCSQFESQSPTFGPGTKVDIK is ____.
0.39

Numbers sourced from patent US20160031999A1.
